Molecular target: Guanidinoacetate N-methyltransferase (Homo sapiens) (UniProt Q14353)
Assay: Confirmatory Screen for Target Class Profiling of Small Molecule Inhibitors of Methyltransferases (AID 1745852); note: % is set by controls: 0 for no effect and ±100 for the full control effect
Settings: MTase-Glo luminescence, SAH detection, recombinant enzyme; at 57.3 µM (top of the series) unless noted
Metric: activity change, negative = inhibition

Examples from the recorded data:
Cn1cc(-c2ccc(F)c(C(F)(F)F)c2)nc1C1CCN(c2ncnc3[nH]ncc23)CC1 | 1.12% [at 9.47 µM]
Cc1c[nH]c2ncnc(N3CCC(CN)(C(=O)Nc4cccc(OC(=O)N(C)C)c4)CC3)c12 | -4.87% [at 114 µM]

The record that follows has no activity change, negative = inhibition shown yet.
query: Field request: activity change, negative = inhibition | item: CC[C@H]1CN(c2nc(N)c(C(N)=O)nc2Cl)CCN1C1CCN(Cc2ccc(Cl)cc2)CC1
result: -2.17% [at 29.8 µM]

###

Test: Primary qHTS for inhibitors of nuclear receptor binding SET domain protein 2 (NSD2) in an RCH-ACV wild type WT cells (2C) (AID 1645877); note: nearly all actives have a fitted effect of over 70% in size
Details: RCH-ACV (leukaemia line) NSD2 WT (2C) viability, CellTiter-Glo, 72 h; series mostly up to 44.9 µM
Inconclusive results are not listed. Active and inactive are the calls of the source. Calls come from the whole dose curve; as a rule, active = well fitted inhibition curve with a large enough effect; inconclusive = small, poorly fitted or top-dose-only effect; inactive = no such curve, though single readings can be large or run the other way.
Returns: one label drawn from active, inactive

query: What did the test return for CN1CCC(NC(=O)c2cc(-c3c(O)cc(O)cc3Oc3ccc([N+](=O)[O-])cc3)on2)CC1 ?
result: active

query: What did the test return for CC(C)C[C@@H](C(=O)N[C@@H](Cc1ccc(OCc2ccccc2)cc1)C(=O)NC(C)(C)C)N(C)Cc1ccc(C(C)(C)C)cc1 ?
result: inactive

query: What did the test return for Cc1ccc(NC(=O)C(C)C)cc1C1CCN(Cc2ccc(Oc3ccc(F)c(F)c3)cc2)CC1 ?
result: active

###

Can you tell me max response for the items I'm about to list?
Tested on: KB-3-1
Assay: Cytotoxic Profiling of Annotated Libraries Using Quantitative High-Throughput Screening (AID 1296008); note: nearly all actives have a fitted effect of over 60% in size; for max response: % is set by controls: 0 for no effect and ±100 for the full control effect
Settings: Five cell lines viability, CellTiter-Glo ATP luminescence, 48-72 h; stronger effect = lower value
Records with an inconclusive call do not appear.
Answers are plain numbers, in %.

Here are 3 molecules. What values of max response were reported for them?
1. Nc1nc2c(s1)CCN(Cc1ccc(Cl)cc1)CC2
2. COc1cc2[nH]c(C)c(CCN3CCN(c4ccccc4)CC3)c2cc1OC
3. COc1c2c(nc3occc13)C(CC=C(C)C)(OC)C(O)CC2 (stereo unspecified)

result:
[6.96, -9.43, -4.13]

###

Tested on: HaCat
Experiment: Cytotoxic Profiling of Annotated Libraries Using Quantitative High-Throughput Screening (AID 1296008); note: nearly all actives have a fitted effect of over 60% in size
Details: Five cell lines viability, CellTiter-Glo ATP luminescence, 48-72 h
Records with an inconclusive call do not appear. Calls of active or inactive are those of the source. Calls come from the whole dose curve; as a rule, active = well fitted inhibition curve with a large enough effect; inconclusive = small, poorly fitted or top-dose-only effect; inactive = flat fitted curve, though single readings scatter.
Returns: one label drawn from yes (1) = active, no (0) = inactive

Consider the worked cases shown below.
COc1cccc(N2CCN(C3=Nc4c(F)cccc4[C@H](CC(=O)O)N3c3cc(C(F)(F)F)ccc3OC)CC2)c1 | no (0)
C=C1CCC2C(C)(C(=O)O)CCCC2(C)C1CCC1=CCOC1=O (stereo not given) | no (0)
CCC(C)C(=O)O[C@H]1[C@H](O)[C@@]2(COC(C)=O)C(CC1(C)C)C1=CCC3[C@@]4(C)CC[C@H](O[C@@H]5O[C@H](C(=O)O)[C@@H](O)[C@H](O)[C@H]5O)[C@@](C)(CO)C4CC[C@@]3(C)[C@]1(C)C[C@@H]2O (stereo not given in full) | no (0)
Cc1[nH]c2ccccc2c1CCNC(=O)c1cccs1 | no (0)
COc1ccc(-c2ccc3c(N4CCOCC4C)nc(N4CCOCC4C)nc3n2)cc1CO (stereo not given) | yes (1)

query: What did the test return for CC(=O)c1ccc2c(c1)[C@H](NC(=O)c1ccc(F)c(Cl)c1)[C@H](O)C(C)(C)O2 ?
result: no (0)

query: What did the test return for CN1CCN(c2ccc(OC(F)(F)F)c(Nc3ncc4c(n3)-c3c(c(C(N)=O)nn3CCO)CC4)c2)CC1 ?
result: yes (1)

query: What did the test return for C=CC(=O)Nc1cccc(Nc2nc(Nc3ccc(NC4CN(CCF)C4)cc3OC)ncc2C(F)(F)F)c1 ?
result: yes (1)
